Experiment: Acute toxicity, minimal motor impairment (rotorod), mice
Format: in vivo
Settings: mice, 300 mg/kg, 0.5 h, rotorod
Method: Toxicity was measured using the minimal motor impairment test described below. Animals are monitored for overt signs of impaired neurological or muscular function to assess a compound's toxicity. In mice, the rotorod procedure is used to disclose minimal muscular or neurological impairment. When a mouse is placed on a rotating rod (6 rpm), the animal can maintain its equilibrium for long periods of time. […]
EXPERIMENTAL READOUT: TOX 300 0.5 h (animals toxic/tested)

{"COMPOUND": "CCOC(=O)C1[C@@H]2[C@@H](O)[C@@H]3O[C@H](c4ccc(F)cc4F)OC[C@H]3O[C@H]12 (stereo partly shown) [Compound 20d]", "EXPERIMENTAL READOUT": "TOX 300 0.5 h (animals toxic/tested)", "REPORTED MEASUREMENT": "2/4"}
{"COMPOUND": "CCOC(=O)C1[C@@H]2[C@@H](O)[C@@H]3OC(C)(C)OC[C@H]3O[C@H]12 (stereo partly shown)", "EXPERIMENTAL READOUT": "TOX 300 0.5 h (animals toxic/tested)", "REPORTED MEASUREMENT": "0/4"}
{"COMPOUND": "CCOC(=O)C1[C@@H]2[C@@H](OS(N)(=O)=O)[C@@H]3O[C@H](c4ccc(OC)cc4)OC[C@H]3O[C@H]12 (stereo partly shown) [Compound 17b]", "EXPERIMENTAL READOUT": "TOX 300 0.5 h (animals toxic/tested)", "REPORTED MEASUREMENT": "2/4"}
{"COMPOUND": "CCOC(=O)C1[C@@H]2[C@@H](O)[C@@H]3O[C@H](c4ccccc4)OC[C@H]3O[C@H]12 (stereo partly shown) [Compound 20a]", "EXPERIMENTAL READOUT": "TOX 300 0.5 h (animals toxic/tested)", "REPORTED MEASUREMENT": "0/4"}
{"COMPOUND": "CCOC(=O)C1[C@@H]2[C@@H](O)[C@@H]3O[C@H](c4ccc(OC)cc4)OC[C@H]3O[C@H]12 (stereo partly shown)", "EXPERIMENTAL READOUT": "TOX 300 0.5 h (animals toxic/tested)", "REPORTED MEASUREMENT": "3/4"}
{"COMPOUND": "CCOC(=O)C1[C@@H]2[C@@H](OC)[C@@H]3O[C@H](c4ccc(OC)cc4)OC[C@H]3O[C@H]12 (stereo partly shown)", "EXPERIMENTAL READOUT": "TOX 300 0.5 h (animals toxic/tested)", "REPORTED MEASUREMENT": "0/4"}

Now take the following compound into account.
Ask: So what's the measured TOX 300 0.5 h (animals toxic/tested) for this one? CCOC(=O)[C@@H]1[C@H]2O[C@@H]3CO[Si](C(C)(C)C)(C(C)(C)C)O[C@H]3/C(=N/O)[C@H]21
Reply: 0/4

---

The following compounds are shown together with reported TOX 30 0.5 h (animals toxic/tested) values.
experiment: Acute toxicity, minimal motor impairment (rotorod), mice; assay type: in vivo; conditions: mice, 30 mg/kg, 0.5 h, rotorod

{"COMPOUND": "COC(=O)C1[C@@H]2[C@@H](O)[C@@H]3OC(C)(C)OC[C@H]3O[C@H]12 (stereo partly drawn)", "TOX 30 0.5 h (animals toxic/tested)": "0/4"}
{"COMPOUND": "COC(=O)[C@H]1C2O[C@@H]3CO[Si](C(C)(C)C)(C(C)(C)C)O[C@@H]3[C@H](O)[C@@H]21 (stereo partly drawn) [Compound 14b]", "TOX 30 0.5 h (animals toxic/tested)": "0/4"}

Now take the following compound into account.
Ask: So what's the measured TOX 30 0.5 h (animals toxic/tested) for this one? CCOC(=O)C1[C@@H]2[C@@H](OS(=O)(=O)N(C)C)[C@@H]3OC(C)(C)OC[C@H]3O[C@H]12 (stereo partly drawn)
Reply: 0/4
